As an illustration, consider measured CYP1A2 Efficacy (in parenthesis) for molecules on human CYP1A2 (Homo sapiens, UniProt P05177).
Sequence (P05177 whole entry): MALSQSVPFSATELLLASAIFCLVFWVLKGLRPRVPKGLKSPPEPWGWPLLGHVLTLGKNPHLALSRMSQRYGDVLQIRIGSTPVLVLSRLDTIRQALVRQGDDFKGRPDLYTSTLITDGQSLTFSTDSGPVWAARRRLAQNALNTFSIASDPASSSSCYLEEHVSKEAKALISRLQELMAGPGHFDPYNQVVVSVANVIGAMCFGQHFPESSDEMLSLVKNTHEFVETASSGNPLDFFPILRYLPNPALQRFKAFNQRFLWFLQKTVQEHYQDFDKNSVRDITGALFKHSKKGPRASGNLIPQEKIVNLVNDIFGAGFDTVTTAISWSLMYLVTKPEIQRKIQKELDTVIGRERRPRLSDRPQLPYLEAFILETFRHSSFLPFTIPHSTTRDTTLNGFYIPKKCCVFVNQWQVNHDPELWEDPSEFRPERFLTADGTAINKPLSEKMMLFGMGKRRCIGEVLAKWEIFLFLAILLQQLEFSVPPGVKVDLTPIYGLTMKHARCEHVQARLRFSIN
Readout Label: CYP1A2 Efficacy (in parenthesis)

[[record]]
molecule = "CCOP(=O)([O-])OCC.CCn1cc[n+](C)c1"
study_system = "human CYP1A2 (Homo sapiens, UniProt P05177)"
observed_value = "78.99 ± 0 (-105 ± 5) %"

[[record]]
molecule = "OC(c1ccc(Cl)cc1)(c1ccc(Cl)cc1)c1cccnc1"
study_system = "human CYP1A2 (Homo sapiens, UniProt P05177)"
observed_value = "38.47 ± 2.51 (-60 ± 13) %"

[[record]]
molecule = "CCCCCCCCCCCCCCCCCC(=O)O.OCCN(CCO)CCO [Triethanolamine stearate]"
study_system = "human CYP1A2 (Homo sapiens, UniProt P05177)"
observed_value = "3.98 ± 2.02 (-97 ± 4) %"

[[record]]
molecule = "OCC(c1ccc(Cl)cc1)c1ccc(Cl)cc1"
study_system = "human CYP1A2 (Homo sapiens, UniProt P05177)"
observed_value = "34.28 ± 2.23 (-78 ± 6) %"

[[record]]
molecule = "CC(=O)O.CC(C)c1ccc2c(c1)CC[C@H]1[C@](C)(CN)CCC[C@]21C [Dehydroabietylamine acetate]"
study_system = "human CYP1A2 (Homo sapiens, UniProt P05177)"
observed_value = "38.64 ± 5.32 (-53 ± 5) %"

[[record]]
molecule = "CC(=O)c1ccc2ccc3ccccc3c2c1"
study_system = "human CYP1A2 (Homo sapiens, UniProt P05177)"
observed_value = "1.04 ± 0.13 (-97 ± 1) %"

[[record]]
molecule = "C=CCc1cc(S(=O)(=O)c2ccc(O)c(CC=C)c2)ccc1O"
study_system = "human CYP1A2 (Homo sapiens, UniProt P05177)"
observed_value = "73.87 ± 5 (-42 ± 2) %"

[[record]]
molecule = "COP(=S)(NC(C)C)Oc1ccc(C)cc1[N+](=O)[O-] (stereo not shown)"
study_system = "human CYP1A2 (Homo sapiens, UniProt P05177)"
observed_value = "12.35 ± 5.02 (-104 ± 9) %"

[[record]]
molecule = "Cl.Clc1ccc(Cn2c(CN3CCCC3)nc3ccccc32)cc1 [Clemizole hydrochloride]"
study_system = "human CYP1A2 (Homo sapiens, UniProt P05177)"
observed_value = "17.64 ± 0.46 (-72 ± 13) %"

[[record]]
molecule = "O=C(C(=O)c1ccc(Br)cc1)c1ccc(Br)cc1"
study_system = "human CYP1A2 (Homo sapiens, UniProt P05177)"
observed_value = "9.92 ± 0 (-37 ± 3) %"

[[record]]
molecule = "Cn1ccc2cc3c(cc21)CCN3C(=O)Nc1cccnc1"
study_system = "human CYP1A2 (Homo sapiens, UniProt P05177)"
observed_value = "0.07 ± 0.01 (-96 ± 6) %"

[[record]]
molecule = "CC(C)(C)c1cc(CCC(=O)NN)cc(C(C)(C)C)c1O"
study_system = "human CYP1A2 (Homo sapiens, UniProt P05177)"
observed_value = "6.97 ± 1.74 (-102 ± 5) %"

[[record]]
molecule = "O=C1CCCc2c1cc1ccc3cccc4ccc2c1c34 [9,10-Dihydrobenzo[a]pyren-7(8H)-one]"
study_system = "human CYP1A2 (Homo sapiens, UniProt P05177)"
observed_value = "0.28 ± 0.05 (-100 ± 3) %"

[[record]]
molecule = "Cc1ccc([N+](=O)[O-])[c]2c1[O][Hg]2"
study_system = "human CYP1A2 (Homo sapiens, UniProt P05177)"
observed_value = "4.36 ± 1.13 (-86 ± 7) %"

[[record]]
molecule = "CCCCCCCCCCCCCC[P+](CCCC)(CCCC)CCCC.CCCCCCCCCCCCc1ccc(S(=O)(=O)[O-])cc1"
study_system = "human CYP1A2 (Homo sapiens, UniProt P05177)"
observed_value = "24.26 ± 16.34 (-39 ± 1) %"

[[record]]
molecule = "Nc1nc2ccccc2n1Cc1ccc(F)cc1"
study_system = "human CYP1A2 (Homo sapiens, UniProt P05177)"
observed_value = "19.77 ± 4.14 (-57 ± 9) %"

[[record]]
molecule = "O=C(NCc1cccnc1)Nc1ccc([N+](=O)[O-])cc1"
study_system = "human CYP1A2 (Homo sapiens, UniProt P05177)"
observed_value = "15.45 ± 2.63 (-100 ± 0) %"

[[record]]
molecule = "O=C(Nc1ccccc1SSc1ccccc1NC(=O)c1ccccc1)c1ccccc1 [2,2'-Dibenzoylaminodiphenyl disulfide]"
study_system = "human CYP1A2 (Homo sapiens, UniProt P05177)"
observed_value = "6.73 ± 1.52 (-88 ± 2) %"

[[record]]
molecule = "Oc1cc2ccccc2c2ccccc12"
study_system = "human CYP1A2 (Homo sapiens, UniProt P05177)"
observed_value = "0.05 ± 0.01 (-99 ± 4) %"


Provenance of the data: paper PMC12155096
